Hello, the source for this data is patent US20150290319A1, in case you need it.

# targetOrTestSystem: T1, Clostridium difficile toxin B (whole toxin B) (Clostridium difficile)
# T1 construct: also called TcdB; tcdB
# procedureText: biolayer interferometry (Octet QKe); biotinylated antibody on streptavidin sensor, toxin B 50-0.78 nM
Give kon for every item shown.
Give just the numeric value; M⁻¹ s⁻¹ need not be written.

Please fill in: kon reported for CAN46G24 (antibody, V domains shown, also called CAN46G24-2-3; murine CAN46G24) VH: EVQLLQSGPELVKPGTSVKISCKASGYSFTGYYIHWVKQTHVKSLEWVGRIFPYNGAASYNQNFKGKATLTVDKSSSTAYMELHSLTSEDSAVYFCARWLRVYFDYWGQGTTLTVSS VL: EIVLTQSPAIMSTSPGEKVTMSCSASSSVTYMHWYQQKSITSPKLWIYETSKLASGVPGRFSGSGSGNSYSLTISSMEAEDVATYYCFQGSGYPFTFGSGTKLEIK = 149000

Please fill in: kon reported for CAN46G19 (antibody, V domains shown, also called CAN46G19-3-2; murine CAN46G19) VH: EVQLLQSGPELVKPGTSVKISCKASGYSFTGYYIHWVKQTHVKSLEWVGRIFPYNGAASYNQNFKGKATLTVDKSSTTAYMELHSLTSEDSAVYFCARWLRVYFDYWGQGTTLTVSS VL: ENVLTQSPTIMSASPGEEVTMTCSASSSVTYMHWYQQKSITSPKLWIYETSKLASGVPGRFSGSGSGNSYSLTISSMEAEDVATYYCFQGSGYPFTFGSGTKLEIK = 114000

Please fill in: kon reported for CAN46G13 (antibody, V domains shown, also called CAN46G13-1-5; murine CAN46G13) VH: EVQLLQSGPELVKPGTSVKISCKASGYSFTGYYIHWVKQTHVKSLEWVGRIFPYNGAASYNQNFKGKATLTVDKSSSTAYMELHSLTSEDSAVYFCARWLRVYFDYWGQGTTLTVSS VL: EIVLTQSPAIMSTSPGEKVTMSCSASSSVTYMHWYQQKSITSPKLWIYETSKLASGVPGRFSGSGSGNSYSLTISSMEAEDVATYYCFQGSGYPFTFGSGTKLEIK = 128000

Please fill in: kon reported for CAN46G4 (antibody, V domains shown, also called CAN46G4-1-2; murine CAN46G4) VH: EVQLLQSGPELVKPGASVKISCKASDYSFTGYYMHWVKQSHVKSLEWIGRIFPYNGAASYNQNFKDKATLTVDKSSSTAYMELHSLTSEDSAVYYCTRWLRVYFDYWGQGTTLTVSS VL: EKVLTQSPAIMSASPGEEVTMTCSASSSVSYMHWYQQKSSTSPKLWIYETSKLAFGVPGRFSGSGSGNSYSLTISSMEAEDVATYYCFQGSGYPFTFGSGTKLEVK = 71800
